biological target: human VAP-1 enzyme (SSAO) (Homo sapiens); construct: made in house; cell extract used; assay: Enzyme activity inhibitory effect on human VAP-1 enzyme (SSAO), radiochemical-enzyme assay with 14C-benzylamine; type: biochemical; conditions: human VAP-1 (SSAO) cell extract, 14C-benzylamine 1×10^−5 mol/l, 37° C. 2 hours
Sequence (Q16853 whole entry): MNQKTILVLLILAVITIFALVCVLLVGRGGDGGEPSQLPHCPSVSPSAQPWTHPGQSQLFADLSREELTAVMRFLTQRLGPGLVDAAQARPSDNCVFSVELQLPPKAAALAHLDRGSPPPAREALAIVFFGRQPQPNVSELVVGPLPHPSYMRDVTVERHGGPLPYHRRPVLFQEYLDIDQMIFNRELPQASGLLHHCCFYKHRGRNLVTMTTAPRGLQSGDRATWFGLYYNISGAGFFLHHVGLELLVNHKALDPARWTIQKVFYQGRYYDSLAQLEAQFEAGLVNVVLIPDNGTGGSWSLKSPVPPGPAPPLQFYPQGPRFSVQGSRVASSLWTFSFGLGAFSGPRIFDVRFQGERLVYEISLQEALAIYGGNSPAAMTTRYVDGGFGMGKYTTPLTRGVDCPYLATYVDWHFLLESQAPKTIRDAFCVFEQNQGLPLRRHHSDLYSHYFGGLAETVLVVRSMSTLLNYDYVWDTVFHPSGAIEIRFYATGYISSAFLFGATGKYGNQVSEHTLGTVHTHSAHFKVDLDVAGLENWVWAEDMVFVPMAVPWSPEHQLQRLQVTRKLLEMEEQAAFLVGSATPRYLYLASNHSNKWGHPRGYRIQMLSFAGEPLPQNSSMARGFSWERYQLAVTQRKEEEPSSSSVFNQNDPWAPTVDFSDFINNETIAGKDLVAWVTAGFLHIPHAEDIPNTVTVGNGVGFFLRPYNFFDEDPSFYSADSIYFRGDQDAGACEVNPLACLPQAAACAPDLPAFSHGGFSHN
Where a name gives a salt, the structure may show the parent alone.
measured endpoint: IC50 (nM)

CC(=O)Nc1nc(CCc2ccc(COC(=O)NN)c(F)c2F)cs1 [Production Example 6, hydrochloride] ... 1.3

A: CC(=O)Nc1nc(CCc2ccc(CNC(=O)NN)s2)cs1.Cl [Production Example 29, hydrochloride]
B: CC(=O)Nc1nc(COc2ccc(CCOC(=O)NN)cc2)cs1
C: CC(=O)Nc1nc(CCc2ccc(COC(=O)NN)s2)cs1 [Production Example 13, hydrochloride]
Falling order of IC50, please. Would you mind listing the labels in the order asked for? B, C, A
(B: 57 nM, C: 3.4 nM, A: 1.8 nM)

###

Where a name gives a salt, the structure may show the parent alone.
Recorded melting point, one value per entry.

// CC(=O)Nc1nc(CCc2cccc(OC(=O)NN)c2)cs1 (as salt: hydrochloride) : melting point value = 158 to 162 °C

###

Counter-ions that a name gives are not always drawn.
Recorded melting point, one value per entry.

For orientation, consider the following solved cases.
CC(=O)Nc1nc(CCc2ccc(COC(=O)NN)cc2)cs1.Cl ... 162 to 164 °C
CC(=O)Nc1nc(CCc2csc(CCCNC(=O)NN)c2)cs1 (as salt: hydrochloride) ... 153 to 156 °C
CC(=O)Nc1nc(CCc2ccc(CSC(=O)NN)cc2)cs1.Cl ... 149 to 158 °C
CC(=O)Nc1nc(CCc2cccc(COC(=O)NN)c2)cs1.Cl ... 113 to 119 °C
CC(=O)Nc1nc(CCc2cc(C)c(CCCOC(=O)NN)s2)cs1.Cl ... 111 to 115 °C

// "CC(=O)Nc1nc(CCc2ccc(CCOC(=O)NN)cc2)cs1.Cl" : melting point value = 172 to 174 °C

// "CC(=O)Nc1nc(COc2ccc(CCOC(=O)NN)cc2)cs1" : melting point value = 177 to 180 °C

// "CC(=O)Nc1nc(CCc2cc(CCCOC(=O)NN)cs2)cs1.Cl" : melting point value = 98 to 102 °C

// CC(=O)Nc1nc(CCc2ccc(CNC(=O)NN)cc2F)cs1 (as salt: hydrochloride) : melting point value = 165 to 169 °C

// "CC(=O)Nc1nc(C(=O)Oc2ccc(CCOC(=O)NN)cc2)cs1.Cl" : melting point value = 179 to 184 °C

// "CC(=O)Nc1nc(CCc2ccc(CCNC(=O)NN)s2)cs1.Cl" : melting point value = 178 to 181 °C

// "CC(=O)Nc1nc(CCc2ccc(CNC(=O)NN)cc2)cs1.Cl" : melting point value = 167 to 169 °C

###

molecular target: human VAP-1 enzyme (SSAO) (Homo sapiens); construct: made in house; cell extract used; assay: Enzyme activity inhibitory effect on human VAP-1 enzyme (SSAO), radiochemical-enzyme assay with 14C-benzylamine; assay type: biochemical; conditions: human VAP-1 (SSAO) cell extract, 14C-benzylamine 1×10^−5 mol/l, 37° C. 2 hours
Structures can show the parent of a compound that is named as a salt.
measured endpoint: IC50 (nM)

For orientation, consider the following solved cases.
CC(=O)Nc1nc(CCc2ccc(CCOC(=O)NN)cc2)cs1.Cl [Production Example 3, hydrochloride] ... 11.7
CC(=O)Nc1nc(CNc2ccc(CNC(=O)NN)cc2)cs1 [Production Example 23, dihydrochloride] ... 16.8
CC(=O)Nc1nc(CCc2ccc(CCNC(=O)NN)cc2)cs1.Cl [Production Example 19, hydrochloride] ... 12.2

I: CC(=O)Nc1nc(C(=O)Oc2ccc(CCNC(=O)NN)cc2)cs1.Cl [Production Example 26, hydrochloride]
II: CC(=O)Nc1nc(COc2ccc(CCNC(=O)NN)cc2)cs1 [Production Example 25, trifluoroacetate]
III: CC(=O)Nc1nc(CCc2ccc(CSC(=O)NN)cc2)cs1.Cl [Production Example 34, hydrochloride]
Falling order of IC50, please. Would you mind listing the labels in the order asked for? II, III, I

Values from patent US8507690B2
